For each record, write down the corresponding CMV-LACZ in Myotubes, signal relative to DMSO.
- Test system: β-galactosidase in CMV-LacZ C2C12 myotubes
- Assay notes: CMV-LacZ secondary screen in C2C12 myotubes (β-Gal stabilizing assay)
- Assay type: cell-based, mouse
- Details: 5 uM; C2C12 CMV-LacZ myotubes; fold relative to DMSO
// response body must contain only the number

Kindly note the recorded CMV-LACZ in Myotubes, signal relative to DMSO for CCOc1ccccc1Nc1cc2n(c(=O)n1)CCc1cc(OC)c(OC)cc1-2 , which is 1.1438

Looking up Cc1ccccc1S(=O)(=O)N1C[C@H]2CON(C)[C@H]2C[C@H]1c1cccc(-c2ccccc2)c1 , I see its CMV-LACZ in Myotubes, signal relative to DMSO listed as 1.1420

Notebook: COC(=O)c1ccc(COC(=O)CNC(=O)c2cccs2)cc1 , CMV-LACZ in Myotubes, signal relative to DMSO read as 0.8812

The measured CMV-LACZ in Myotubes, signal relative to DMSO associated with COc1ccc(N=Nc2ccc(N)nc2N)cc1 reads 1.0250

The reported value for c1ccc(-c2cc(-c3nc4ccccc4[nH]3)c3ccccc3n2)cc1 in terms of CMV-LACZ in Myotubes, signal relative to DMSO is 0.8969

Entry under test: O=C(NCCc1ccccc1)C1CCC(=O)N1C1CCCC1 (stereo not drawn) . Its CMV-LACZ in Myotubes, signal relative to DMSO was 1.1274

Lab book: CMV-LACZ in Myotubes, signal relative to DMSO of CC1(C)Cc2ccccc2-c2nc3n(c(=O)c21)CCS3 noted as 0.9993

# CMV-LACZ in Myotubes, signal relative to DMSO (compound: Cc1ccccc1NC(=O)NCCCN1CCN(C)CC1 ) is 0.9771

CC1CC(C)(C)NC(=S)N1CC(=O)N(C)Cc1ccccc1 (stereo not drawn) has a reported CMV-LACZ in Myotubes, signal relative to DMSO of 0.9511

* * *

- Test system: β-galactosidase in CMV-LacZ C2C12 myoblasts
- Assay notes: CMV-LacZ secondary screen in C2C12 myoblasts (β-Gal stabilizing assay)
- Type: cell-based, mouse
- Details: 10 uM; CMV-LacZ C2C12 myoblasts
In plain terms, low CMV-LACZ in Myoblasts (β-galactosidase activity relative to DMSO), meaning strictly below 1, gives met, and everything else gives not met.

Query: Lab log: compare recorded CMV-LACZ in Myoblasts (β-galactosidase activity relative to DMSO) with 1; is it strictly lower for Cc1ccsc1CN(C)CC(=O)Nc1ccc([N+](=O)[O-])cc1Cl [MLS001172822-01] ?
Response: not met

Query: Field: below-cutoff. Rule: recorded CMV-LACZ in Myoblasts (β-galactosidase activity relative to DMSO) strictly less than 1. Subject: CCOc1ccccc1NC(=O)c1cccc2c1C(=O)N(C1CCCCC1)C2 [MLS000912726-01]
Response: not met

Query: Just wondering, is CMV-LACZ in Myoblasts (β-galactosidase activity relative to DMSO) of Cc1nnc(SCC(=O)c2ccc(Br)cc2)s1 [MLS000420298-01] below 1?
Response: not met

Query: A record lists CC(C)(C)Nc1nc(-c2ccc3c(c2)CCN3C(=O)C2CC2)cs1 [MLS001216939-01] . Is its CMV-LACZ in Myoblasts (β-galactosidase activity relative to DMSO) below 1?
Response: met

Query: # strict comparison: is reported CMV-LACZ in Myoblasts (β-galactosidase activity relative to DMSO) < 1? input = N/C(=N\OC(=O)c1cccc(C(F)(F)F)c1)c1cnccn1 [MLS001098105-01]
Response: met
